# TARGET_ENTITY: Type-1 angiotensin II receptor (Oryctolagus cuniculus)
# Sequence (P34976 whole entry): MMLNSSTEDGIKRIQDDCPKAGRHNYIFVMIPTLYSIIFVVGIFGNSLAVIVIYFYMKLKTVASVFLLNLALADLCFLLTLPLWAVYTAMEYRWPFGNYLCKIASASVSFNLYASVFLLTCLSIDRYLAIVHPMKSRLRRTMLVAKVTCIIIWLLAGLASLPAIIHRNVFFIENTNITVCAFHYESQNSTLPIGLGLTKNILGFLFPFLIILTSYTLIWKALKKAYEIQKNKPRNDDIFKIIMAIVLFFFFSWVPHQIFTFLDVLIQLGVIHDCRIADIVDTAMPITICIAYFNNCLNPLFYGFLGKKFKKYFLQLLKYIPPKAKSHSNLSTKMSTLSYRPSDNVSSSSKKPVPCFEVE
# ASSAY_NOTES: Inhibition of Angiotensin II receptor, type 1 in rabbit aorta using [125I-Sar1,Ile8] angiotensin II binding assay
# Format: tissue-based

COMPOUND | IC50
CCCCCN(CCCCC)C(=O)N1CCN(C(=O)N(c2ccccc2)c2ccccc2)C(C(=O)O)C1 (centres undefined) | > 30 µM
CN(C(=O)N1CCN(C(=O)N(c2ccccc2)c2ccccc2)[C@H](C(=O)O)C1)c1ccccc1 | > 10 µM
CCCCCN(CCCCC)C(=O)N1CCN(C(=O)N(c2ccccc2)c2ccccc2)C[C@H]1C(=O)O | 25 µM
CCCCCN(CCCCC)C(=O)N1CCN(C(=O)N(CCCCC)CCCCC)[C@H](C(=O)O)C1 | > 30 µM

* * *

# TARGET_ENTITY: Type-2 angiotensin II receptor (Rattus norvegicus)
# Sequence (P35351 whole entry): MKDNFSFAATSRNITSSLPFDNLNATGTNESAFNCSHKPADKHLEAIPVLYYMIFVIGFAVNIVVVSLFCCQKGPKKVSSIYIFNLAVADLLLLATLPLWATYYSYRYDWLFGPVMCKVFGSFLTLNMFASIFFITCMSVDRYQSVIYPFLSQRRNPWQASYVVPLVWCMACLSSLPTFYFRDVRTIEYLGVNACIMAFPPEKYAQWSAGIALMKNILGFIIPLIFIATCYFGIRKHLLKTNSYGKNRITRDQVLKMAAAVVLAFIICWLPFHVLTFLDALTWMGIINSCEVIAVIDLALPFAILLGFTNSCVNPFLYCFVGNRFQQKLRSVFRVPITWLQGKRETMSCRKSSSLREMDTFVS
# ASSAY_NOTES: Compound was evaluated for inhibition of Angiotensin II receptor, type 2 in rat midbrain AT2 assay
# Format: tissue-based
pIC50: −log10 of the molar value.
OUTCOME_MEASURE: pIC50

GIVEN_SMILES | REPORTED_RESULT
COc1ccc(Cn2cnc3c2C[C@@H](C(=O)O)N(C(=O)C(c2ccccc2)c2ccccc2)C3)cc1C | 7.42

* * *

# TARGET_ENTITY: Type-1 angiotensin II receptor (Oryctolagus cuniculus, UniProt P34976)
# Sequence (P34976 whole entry): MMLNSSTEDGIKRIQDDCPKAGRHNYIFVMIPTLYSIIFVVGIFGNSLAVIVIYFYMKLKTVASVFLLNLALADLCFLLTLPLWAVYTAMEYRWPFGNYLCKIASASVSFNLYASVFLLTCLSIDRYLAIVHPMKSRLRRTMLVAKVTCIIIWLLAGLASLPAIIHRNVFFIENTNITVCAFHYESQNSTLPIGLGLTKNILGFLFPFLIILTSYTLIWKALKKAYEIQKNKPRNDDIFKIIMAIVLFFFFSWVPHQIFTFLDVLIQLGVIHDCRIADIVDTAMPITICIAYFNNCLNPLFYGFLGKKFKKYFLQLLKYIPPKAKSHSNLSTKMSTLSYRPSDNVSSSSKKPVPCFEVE
# ASSAY_NOTES: Inhibition of angiotensin Angiotensin II receptor, type 1 in rabbit aorta using [125I-Sar1,Ile8] angiotensin II binding assay
# Type: tissue-based
pIC50: −log10 of the molar value.
Each record here notes measured pIC50.
OUTCOME_MEASURE: pIC50

MOLECULE | TARGET_ENTITY | OPERATOR | REPORTED_RESULT
CCCCCN(CCCCC)C(=O)N1CCN(C(=O)N(c2ccccc2)c2ccc(Br)cc2)[C@H](C(=O)O)C1 | Type-1 angiotensin II receptor (Oryctolagus cuniculus, UniProt P34976) | = | 5.27
CCCCCN(CCCCC)C(=O)N1CCN(C(=O)N(c2ccccc2)c2ccccc2)[C@H](C(=O)O)C1 | Type-1 angiotensin II receptor (Oryctolagus cuniculus, UniProt P34976) | = | 4.41
CCCCCN(CCCCC)C(=O)N1CCN(C(=O)N(c2ccccc2)c2cccc(Br)c2)[C@H](C(=O)O)C1 | Type-1 angiotensin II receptor (Oryctolagus cuniculus, UniProt P34976) | = | 4.23
CC1CN(C(=O)N(c2ccccc2)c2ccccc2)CCN1C(=O)N(c1ccccc1)c1ccccc1 (centres undefined) | Type-1 angiotensin II receptor (Oryctolagus cuniculus, UniProt P34976) | < | 4.00

* * *

# TARGET_ENTITY: UniProt P34976
# ASSAY_NOTES: Inhibition of Angiotensin II receptor, type 1 in rabbit aorta using [125I-Sar1,Ile8] angiotensin II binding assay
# Type: tissue-based
pIC50: −log10 of the molar value.
Each record here notes measured pIC50.
OUTCOME_MEASURE: pIC50

COMPOUND | OUTCOME_MEASURE | REPORTED_RESULT
CCCCCN(CCCCC)C(=O)N1CCN(C(=O)N(c2ccccc2)c2ccccc2)[C@H](CO)C1 | pIC50 | < 5.00
CCCCCN(CCCCC)C(=O)N1CCN(C(=O)C(c2ccccc2)c2ccccc2)C(C(=O)O)C1 (stereo not drawn) | pIC50 | < 4.00
O=C(O)[C@@H]1CN(C(=O)N(c2ccccc2)c2ccccc2)CCN1C(=O)N(c1ccccc1)c1ccccc1 | pIC50 | < 4.00
CCCCCN(C(=O)N1CCN(C(=O)N(c2ccccc2)c2ccccc2)C[C@H]1C(=O)O)c1ccccc1 | pIC50 | 4.35
CC(C)N(C(=O)N1CCN(C(=O)N(c2ccccc2)c2ccccc2)[C@H](C(=O)O)C1)C(C)C | pIC50 | < 5.00
CCCCCN(CCCCC)C(=O)N1CCN(C(=O)N(c2ccccc2)c2ccccc2)[C@@H](C(=O)O)C1 | pIC50 | < 5.00
CCCCCN(C)C(=O)N1CCN(C(=O)N(c2ccccc2)c2ccccc2)[C@H](C(=O)O)C1 | pIC50 | < 4.52
CCCCCN(CCCCC)C(=O)N1CCN(C(=O)N(c2ccccc2)c2ccccc2)[C@H](C(=O)OC)C1 | pIC50 | 4.68

* * *

# TARGET_ENTITY: Type-2 angiotensin II receptor (Rattus norvegicus)
# Sequence (P35351 whole entry): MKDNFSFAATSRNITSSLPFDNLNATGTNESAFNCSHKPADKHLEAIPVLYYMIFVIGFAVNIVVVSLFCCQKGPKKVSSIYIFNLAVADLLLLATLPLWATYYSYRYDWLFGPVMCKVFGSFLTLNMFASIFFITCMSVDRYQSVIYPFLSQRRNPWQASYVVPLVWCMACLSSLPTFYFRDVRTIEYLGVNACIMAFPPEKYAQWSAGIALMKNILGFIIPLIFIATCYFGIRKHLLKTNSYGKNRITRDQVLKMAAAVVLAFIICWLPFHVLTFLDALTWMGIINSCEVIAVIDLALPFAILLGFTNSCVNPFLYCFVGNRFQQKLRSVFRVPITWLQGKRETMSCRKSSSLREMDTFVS
# ASSAY_NOTES: Inhibition of Angiotensin II receptor, type 2 in rat midbrain using [125I]-Sar1,Ile8 angiotensin II binding assay
pIC50: −log10 of the molar value.

MOLECULE | pIC50
CCCCCN(CCCCC)C(=O)N1CCN(C(=O)N(c2ccccc2)c2ccccc2)[C@H](CCO)C1 | 7.82
CCCCCN(CCCCC)C(=O)N1CCN(C(=O)N(c2ccccc2)c2ccc(I)cc2)[C@H](C(=O)O)C1 | 8.15
O=C(N1CCN(C(=O)N(c2ccccc2)c2ccccc2)CC1)N(c1ccccc1)c1ccccc1 | 7.43
CCCCCN(CCCCC)C(=O)N1CCN(C(=O)N(c2ccccc2)c2cccc(Cl)c2)[C@H](C(=O)O)C1 | 9.40
CCCCCN(CCCCC)C(=O)N1CCN(C(=O)N(c2ccccc2)c2ccccc2)C(C(=O)O)C1 (stereo not given) | 8.77
CCCCCN(CCCCC)C(=O)N1CCN(C(=O)N(c2ccccc2)c2cccc(Br)c2)[C@H](C(=O)O)C1 | 9.22
CCCCCN(CCCCC)C(=O)N1CCN(C(=O)N(c2ccccc2)c2ccccc2)[C@H](CO)C1 | 7.52
CCCCCN(CCCCC)C(=O)N1CCN(C(=O)N(c2ccccc2)c2ccc(C(=O)OCC)cc2)[C@H](C(=O)O)C1 | 7.46
CC(C)N(C(=O)N1CCN(C(=O)N(c2ccccc2)c2ccccc2)[C@H](C(=O)O)C1)C(C)C | 7.40
CCCCCN(CCCCC)C(=O)N1CCN(C(=O)C(c2ccccc2)c2ccccc2)C(C(=O)O)C1 (stereo not given) | 8.96

Value source: ChEMBL document CHEMBL1127116
